Taken from paper PMC5540273.

# System: MAP3K15
# Condition Set: concentration: 1 μM, replicates: in singlicate; n = 1;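 also: KINOMEscan kinase panel screen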
Measurement Name: %Inh

What value of %Inh has been recorded for this entry: N#CC1(c2cccc(C(=O)Nc3cccc(Oc4ccc5nc(NC(=O)C6CC6)sc5n4)c3)c2)CC1
0%

Would you kindly share the measured %Inh for Cc1nn2c(=O)cc(N3CCO[C@H](C)C3)nc2n1Cc1cccc(Cl)c1Cl [GSK2373693] ?
22%

Entry Cc1ccc(NC(=O)c2ccnc(N3CCCCC3)c2)cc1-c1ccc(C(=O)NCC2CC2)cc1 [GW775610] : reported %Inh = ?
0%

Quick check: %Inh of Cc1cc(-c2ccnc(Nc3cccc(C#N)c3)n2)cc(C)c1O [GSK1440913] ?
0%

Report %Inh for Cn1cc(-c2ccc3c(c2)CCN3C(=O)Cc2cc(F)cc(C(F)(F)F)c2)c2c(N)ncnc21 [GSK2635225] please.
0%

###

Could you please report measured %Inh for the items listed next?
# System: CSK
# Condition Set: concentration: 1 μM, replicates: in singlicate; n = 1

Look up %Inh: O=C1NC(=O)C(c2ccccc2Cl)=C1Nc1cccc(Cl)c1
0%

Fill in: %Inh of CCNC(=O)/C=C/c1n[nH]c2cc(Sc3ccccc3C(=O)NC)ccc12 is ___
3%

Quick one: %Inh of Cc1ccc(O)cc1Nc1ccnc2ccc(C(C)(C)C)cc12 ?
53%

Quick one: %Inh for CN1CCN(Cc2ccc(NC(=O)Nc3ccc(N(C)c4ccnc(Nc5ccc(CS(C)(=O)=O)cc5)n4)cc3)cc2)CC1.Cl ?
47%

What value of %Inh has been recorded for this entry: CSc1ccc(NC2=C(c3ccc(Cl)cc3)C(=O)NC2=O)cc1
21%

###

Please provide measured %Inh for the entries that follow.
# Test system: INSR
# Condition Set: concentration: 1 μM, replicates: in singlicate; n = 1
Express the result in % but write the number alone.

Need %Inh, item Cc1ccc(NC(=O)c2ccnc(N3CCCCC3)c2)cc1-c1ccc(C(=O)NCC2CC2)cc1
0

If you can, please state the reported %Inh value of COc1cc(Nc2nccc(N3CCC(NC(=O)Nc4ccc5c(c4)OCO5)C3)n2)cc(OC)c1OC (stereo not shown) .
25

Name the recorded %Inh for O=C(Nc1c(F)cccc1F)c1cc(C(=O)c2ccccc2F)c[nH]1 .
17

Fill in the blank: the reported %Inh of COC(=O)Nc1nc2ccc(Oc3ccc(CC(=O)Nc4cc(C(F)(F)F)ccc4F)cc3)cc2[nH]1 is ____.
0

###

# Tested on: EPHB6
# Condition Set: concentration: 1 μM, replicates: in singlicate; n = 1
Measurement Name: %Inh (%)
Express it in %; write the number only.

Bench note: what %Inh did CC(C)(C)c1ccc(C(=O)Nc2cn3cc(-n4ccnc4)ccc3n2)cc1 show?
2

Fill in the blank: the reported %Inh of Cc1cc(-c2c(-c3ccc(F)cc3)ncn2CCCN2CCOCC2)nc(N)n1 is ____.
0

What value of %Inh has been reported for the following molecule? O=C(Nc1n[nH]c2nc(-c3cccc(O)c3)ccc12)C1CC1
48

%Inh for Cc1ccc(C)c(NC(=O)Nc2ccc(C)c(-c3ccc(C(=O)Nc4ccncc4)cc3)c2)c1 ?
0

So what's the measured %Inh for this one? Cl.Cl.NCC(NC(=O)c1cc(-c2cccnc2)c(-c2ccnc3[nH]ccc23)s1)c1ccccc1 (stereo not drawn)
21

Tell me the measured %Inh of NCCC(NC(=O)c1cc(Br)c(-c2ccnc3[nH]ccc23)s1)c1ccccc1.O=C(O)C(F)(F)F.O=C(O)C(F)(F)F (stereo not drawn) , please.
27

Returns the measured %Inh for the input molecule. Input: CN(c1ccc(NC(=O)Nc2cccc(Cl)c2)cc1)c1ccnc(N)n1.Cl
76

Recorded %Inh for Cc1ccc(O)cc1Nc1ccnc2cc(-c3ccc(CN4CCCCC4)o3)ccc12 , please?
83

Fill in the blank: the reported %Inh of O=C(Nc1n[nH]c2nc(-c3ccccc3)ccc12)C1CC1 is ____.
41

###

# Tested on: PIK3C2G
# Condition Set: concentration: 1 μM, replicates: in singlicate; n = 1
Measurement Name: %Inh (%)
Reply with just the number (in %).

I would be grateful if you could share the reported %Inh for Cc1cc(-c2ccnc(Nc3cccc(C#N)c3)n2)cc(C)c1O .
24

# %Inh lookup, item c1ccc(Oc2ccc(Nc3ccnc4cc(-c5ccc(CN6CCCCC6)o5)ccc34)cc2)nc1
0

State the recorded %Inh for this entry: CCNC(=O)/C=C/c1n[nH]c2cc(Sc3ccccc3C(=O)NC)ccc12
1

// lookup %Inh for CCn1cnc2c(NCc3ccccc3)ncnc21
0

Requested read-out: %Inh. Entry: CC(C)c1nc(-c2cccc(NS(=O)(=O)c3c(F)cccc3F)c2)c(-c2ccnc(Nc3ccc(N4CCOCC4)nc3)n2)s1.Cl
0

Bench note: what %Inh did COc1cc(Nc2ccnc3cc(-c4ccncc4)ccc23)cc(OC)c1OC.Cl show?
0

GET /values?readout=%Inh&item= N#Cc1cnc2cc(-c3cnc(CNCCN4CCOCC4)s3)ccc2c1Nc1ccc(Oc2ccccc2)cc1
0

%Inh lookup needed for Cn1cc(-c2ccc3c(c2)CCN3C(=O)Cc2cc(F)cc(F)c2F)c2c(N)ncnc21 , thanks.
0

Would you kindly share the measured %Inh for Cl.N#CCc1ccc(Nc2nccc(Nc3ccc(Oc4ccccc4)cc3)n2)cc1 ?
7

# get_value(readout='%Inh', item= O=C(Nc1c(F)cccc1F)c1cc(C(=O)c2ccccc2F)c[nH]1 )
0

Sample Cc1ccc(O)cc1Nc1ccnc2cc(-c3ccc(CN4CCCCC4)o3)ccc12 — what was its %Inh?
16

Find the recorded %Inh belonging to Fc1cc(Cl)ccc1Nc1ccnc2cc(-c3ccc(CN4CCSCC4)o3)ccc12 and report it.
0

Look up %Inh: CN(c1ccc(NC(=O)N2CCN(CCCN3CCOCC3)CC2)cc1)c1ccnc(Nc2ccc(CS(C)(=O)=O)cc2)n1.Cl
0

What measured %Inh goes with CCn1c(-c2nonc2N)nc2c(-c3ccccc3)ncc(OCCCN)c21.O=C(O)C(F)(F)F.O=C(O)C(F)(F)F ?
9

Suppose we examine the compound COc1cccc(CC(=O)N2CCc3cc(-c4cn(C)c5ncnc(N)c45)ccc32)c1 ; what %Inh value has been reported?
0

Look up %Inh for this compound: COc1ccc(C2=C(Nc3cccc(O)c3)C(=O)NC2=O)cc1
0

# input compound: O=C1NC(=O)C(c2ccccc2Cl)=C1Nc1cccc(Cl)c1 ; wanted: its %Inh
0

Form field: reported %Inh of COc1ccc(NC(=O)c2ccoc2)cc1-c1ccc(C(=O)NCC2CC2)cc1
0

Dear colleague, I am looking for the recorded %Inh of the following compound: CN(C)CCOc1ccc(-c2cc(-c3ccc(Cl)c(O)c3)c(-c3ccncc3)[nH]2)cc1.Cl.Cl
30

Please give the measured %Inh for this compound: COC(=O)Nc1nc2ccc(Oc3ccc(CC(=O)Nc4cc(C(F)(F)F)ccc4F)cc3)cc2[nH]1
0

For the compound shown here, Cc1ccc(Nc2ccnc(Nc3ccc(C)c(F)c3)n2)cc1O.Cl , give the reported %Inh.
0

# query: %Inh of entry Cc1cc(-c2c(-c3ccc(F)cc3)ncn2CCCN2CCOCC2)nc(N)n1
20

If you can, please state the reported %Inh value of COc1cccc(NC(=O)NCCNc2ccnc(Nc3ccc(F)cc3)n2)c1 .
10

What value of %Inh has been recorded for this entry: CC(C)c1nc(-c2ccc(F)c(NS(=O)(=O)c3c(F)cccc3F)c2)c(-c2ccnc(Nc3ccc(N4CCOCC4)nc3)n2)s1
0

Need %Inh of Cn1cc(-c2ccc3c(c2)CCN3C(=O)Cc2cc(F)cc(C(F)(F)F)c2)c2c(N)ncnc21 , thanks.
47

State the recorded %Inh for this entry: COc1cc(Nc2nccc(N3CCC(NC(=O)Nc4ccc5c(c4)OCO5)C3)n2)cc(OC)c1OC (centres unmarked)
0

###

# System: PIM3
# Condition Set: concentration: 1 μM, replicates: in singlicate; n = 1
Measurement Name: %Inh (%)
Write the value in % as a bare number.

Recorded %Inh for CCNC(=O)/C=C/c1n[nH]c2cc(Sc3ccccc3C(=O)NC)ccc12 with PIM3, please?
0

Can you look up %Inh on PIM3 for COc1cc(Nc2ccnc3cc(-c4ccncc4)ccc23)cc(OC)c1OC.Cl ?
0

Entry CN(C)c1ncnc2nc[nH]c12 , system PIM3: what %Inh was measured?
8

Form field: %Inh recorded for CC(C)NCC(Cc1ccccc1)NC(=O)c1cc(Br)c(-c2ccnc3[nH]ccc23)s1.Cl.Cl (stereo not drawn) with PIM3 (enter value)
0

Field: %Inh (PIM3). Entry: Cc1cccc(Nc2nc(NCCN)ncc2C(N)=O)c1
58

Given the entry COC(=O)Nc1nc2ccc(Oc3ccc(NC(=O)Nc4cc(C(F)(F)F)ccc4F)cc3)cc2[nH]1.Cl , what %Inh was observed with PIM3?
0
